# test: small-molecule microarray binders of probe aWnt5a, primary screen, biochemical, biotinylated probe, 635/667 nm fluorescence (AID 1113);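 note: score merges 667 nm fluorescence intensity with signal-to-noise per printed feature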
# cond: higher = more signal
Label Condition met when composite z-score is at or above -0.1; anything below gets Condition not met.

>>> category_label("CCOC(=O)[C@H](Cc1ccccc1)NC(=O)CCC1CC(OC(=O)NCCc2ccc(F)cc2)CC2(CCCC(COC(=O)NCc3cccc(C(F)(F)F)c3)O2)O1 (stereo not given in full)")
"Condition not met"
>>> category_label("CCc1cc2c(nc1CC)CCN(CCC(C)=NO[C@@H]1O[C@H](COC(C)=O)[C@@H](OC(C)=O)[C@H](OC(C)=O)[C@H]1OC(C)=O)C2")
"Condition met"
>>> category_label("CC(C)=CCCC(C)=CCON=C1C[C@@H](O)[C@@H](O)[C@@H]2[C@@H]3C(=O)N(c4cccc(Oc5ccccc5)c4)C(=O)[C@@H]3CC[C@H]12")
"Condition not met"
>>> category_label("COc1cccc([C@H]2Oc3ccc(OC)cc3C(=NO[C@@H](C)c3cc(-c4c(C)cc(C)cc4C)no3)[C@@H]2O)c1")
"Condition not met"
>>> category_label("O=C(NN=C1C[C@@H](O)[C@@H](O)[C@@H]2[C@@H]3C(=O)N(Cc4ccccc4)C(=O)[C@@H]3CC[C@H]12)OCc1ccccc1")
"Condition not met"
>>> category_label("CC(C)CON=C1C[C@@H](O)[C@@H](O)[C@@H]2[C@@H]3C(=O)N(Cc4ccc5c(c4)OCO5)C(=O)[C@@H]3CC[C@@H]12")
"Condition met"
>>> category_label("CC(CCN1CCCc2nc(C)c(C)cc21)=NO[C@H](C)c1cn([C@@H]2COC[C@H]2O)nn1")
"Condition met"
>>> category_label("CC(C)CON=C1C[C@@H](O)[C@@H](O)[C@@H]2[C@@H]3C(=O)N([C@@H](C)c4ccccc4)C(=O)[C@@H]3CC[C@@H]12")
"Condition not met"
>>> category_label("CO[C@H]1COC(=O)CCC[C@H](C)[C@H](OC)COC(=O)CC=C[C@@H]1C")
"Condition not met"
>>> category_label("CC(CCN1CCCc2nc(C)c(C)cc21)=NO[C@H](C)c1cn([C@H](CO)Cc2ccccc2)nn1")
"Condition met"
>>> category_label("C=CC[C@@H]1C=C[C@H](ON=C(C)CCN2CCCc3nc(C)c(C)cc32)[C@@H](CO)O1")
"Condition met"
>>> category_label("O=C1C=C[C@@H](O)[C@@H]2[C@@H]3C(=O)N(C4CCCCC4)C(=O)[C@@H]3CC[C@@H]12")
"Condition met"
>>> category_label("O=C1[C@H]2CCn3c(=O)n(-c4ccccc4)c(=O)n3[C@H]2[C@H](O)[C@@H]2O[C@H]12")
"Condition not met"
>>> category_label("C#CCCCON=C1C[C@@H](O)[C@@H](O)[C@@H]2[C@@H]3C(=O)N(CC)C(=O)[C@@H]3CC[C@H]12")
"Condition met"

----------
# test: small-molecule microarray binders of probe aEGFR, primary screen, biochemical, biotinylated probe, 635/667 nm fluorescence (AID 1097);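 note: probe is a biotinylated anti-EGFR antibody binding compounds printed on slides; score combines fluorescence near 667 nm and signal to noise of each spot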
# cond: higher = more signal
Definition: the class of an entry is the range in lower (below -0.08), middle (-0.08 to below 0.02), upper (0.02 or more) that contains its composite z-score.

>>> category_label("C=CC[C@@H]1C=C[C@H](ON=C2C[C@@H](O)[C@@H](O)[C@@H]3[C@@H]4C(=O)N(CC)C(=O)[C@@H]4CC[C@@H]23)[C@@H](CO)O1")
"lower"
>>> category_label("CC(CCN1CCCc2nc(C)c(C)cc21)=NO[C@@H](C)c1cn([C@H](CO)Cc2ccccc2)nn1")
"middle"
>>> category_label("CC(C)=NO[C@@H](C)c1cn([C@H](CO)Cc2ccccc2)nn1")
"upper"
>>> category_label("COCOc1ccc(Br)cc1C(=O)C=Cc1ccc2c(c1)OCO2")
"lower"
>>> category_label("CC(=O)OC[C@H]1O[C@H](CC=NOC[C@@H](O)COCc2ccco2)C=C[C@@H]1OC(C)=O")
"upper"
>>> category_label("COc1ccc(OC[C@H]2CN3[C@@H](CC[C@@H](C)[C@@H]3c3ccc(Br)cc3)C(=O)O2)cc1")
"middle"
>>> category_label("CC(=O)OC[C@H]1O[C@@H](ON=C2[C@H]3CCn4c(=O)n(-c5ccccc5)c(=O)n4[C@H]3[C@H](O)[C@@H]3O[C@H]23)[C@H](OC(C)=O)[C@@H](OC(C)=O)[C@@H]1OC(C)=O")
"middle"
>>> category_label("CO[C@@H]1COC(=O)[C@H](COCc2ccccc2)NC(=O)CC=C[C@@H](C)[C@H](OC)COC(=O)[C@@H](C)NC(=O)CC=C[C@H]1C")
"lower"
>>> category_label("CCOC(=O)[C@H](CC(C)C)NC(=O)CCC1CC(OC(=O)NCc2ccc3c(c2)OCO3)CC2(CCCC(COC(=O)NCCC(C)C)O2)O1 (stereo not given in full)")
"lower"
>>> category_label("CC(C)[C@@H](OCc1ccccc1)[C@H](C)C=NO[C@@H](C)c1cn([C@H](CO)Cc2ccccc2)nn1")
"lower"
>>> category_label("CC(C)=CCCC(C)=CCON=C1C[C@@H](O)[C@@H](O)[C@@H]2[C@@H]3C(=O)N(c4cccc(Oc5ccccc5)c4)C(=O)[C@@H]3CC[C@H]12")
"upper"
>>> category_label("COc1ccc(-c2cnnc(CCCn3ccnc3-c3ccccc3)n2)cc1")
"upper"
>>> category_label("COc1ccc(COC(=O)NN=C2C[C@@H](O)[C@@H](O)[C@@H]3[C@@H]4C(=O)N(c5cccc(Oc6ccccc6)c5)C(=O)[C@@H]4CC[C@H]23)cc1")
"lower"
>>> category_label("CCO[C@H](c1cc(OC)cc([N+](=O)[O-])c1OC)[C@H](C)[C@@H](OC)[C@H](C)C=CCC(=O)OC")
"middle"
>>> category_label("CC(C)[C@H](NC(=O)OC(C)(C)C)[C@@H](O)CC(=O)C(C)(C)C")
"upper"
